Reported values of GI50 for individual entries
test system: OVCAR-4 ovarian; experiment: NCI tumour cell line growth inhibition, 48 h

# SMILES STR, GI50
measured = [
    ("CN(C)CCCn1c2c(c3ccccc3c1=O)C(=O)c1ccccc1-2", "3.15 µM"),
    ("Clc1nc(Cl)c2ncn(Cc3cccc(COc4cccc(OCc5cccc(Cn6cnc7c(Cl)nc(Cl)nc76)c5)c4)c3)c2n1", "32 µM"),
    ("CC(=O)[CH-]C(=O)c1ccccc1.CC(=O)[CH-]C(=O)c1ccccc1.O=C([O-])c1ccc([O-])cc1.O=C([O-])c1ccc([O-])cc1.[Ti+4]", "57.1 µM"),
    ("CCOC(=O)Sc1ncnc2nc[nH]c12", "0.491 µM"),
    ("CCS(=O)(=O)c1ccc(OC)c(Nc2ncc(-c3cccc(OC)c3)o2)c1", "13.5 µM"),
]
